Cited source: patent US20080019913A1

Test system: adult male ICR mice
Experiment: 55° C. warm water tail-flick test (antinociception)
Format: in vivo, mouse
Settings: mouse 55° C. tail-flick, i.v. administration, time of peak effect
Non-standard residues stand in square brackets, D forms with d. Residues, ends and D or L forms follow the SMILES beside them. *: point of attachment. βGlc = OC[C@H]1O[C@@H](*)[C@H](O)[C@@H](O)[C@@H]1O; X1 = O[C@@H]1[C@@H](O)[C@H](*)OC[C@H]1O; NMeF = CN[C@@H](Cc1ccccc1)C(=O)O
Each entry below carries its reported A50 i.v..
The reply should contain only the number, in µmol/kg.

Check out these entries, answers already filled in.
compound	A50 i.v. (µmol/kg)
C[C@@H](NC(=O)[C@@H](N)Cc1ccc(O)cc1)C(=O)NCC(=O)N(C)[C@@H](Cc1ccccc1)C(=O)N[C@@H](CO)C(N)=O [Compound 2] (HELM PEPTIDE1{Y.[dA].G.[meF].S.[am]}$$$$V2.0; N-terminus assumed)	0.20
C[C@@H](NC(=O)[C@@H](N)Cc1ccc(O)cc1)C(=O)NCC(=O)N(C)[C@@H](Cc1ccccc1)C(=O)N[C@@H](CO[C@@H]1OC[C@@H](O)[C@H](O)[C@H]1O)C(N)=O [Compound 3] (H-Y[dA]G[NMeF]S(X1)-NH2; N-terminus assumed)	0.27
C[C@@H](NC(=O)[C@@H](N)Cc1ccc(O)cc1)C(=O)NCC(=O)N(C)[C@@H](Cc1ccccc1)C(=O)N[C@@H](CO[C@@H]1O[C@H](CO)[C@@H](O)[C@H](O)[C@H]1O)C(N)=O [Compound 4] (H-Y[dA]G[NMeF]S(βGlc)-NH2; N-terminus assumed)	0.72

For the next question, use this compound.
q: Can you share its A50 i.v.? I mean this compound: CN1CC[C@]23c4c5ccc(O)c4O[C@H]2[C@@H](O)C=C[C@H]3[C@H]1C5 [Morphine, reference compound]
a: 7.84
